- experimental details: Combined mouse endotoxin-stimulated TNFα release and locomotor activity assay (spontaneous mobility)
- Assay type: in vivo
- assay conditions: female, Balb/c, in vivo, ip, locomotor activity, read-out: ED50 (effective dose that decreases spontaneous mobility 50% of control)
measured attribute: ED50 (mg/kg)
Use mg/kg as the unit, but write only the number.

So for COC(=O)N1CC(c2ccc(OC)c(OC3CCCC3)c2)[C@@](C)(/C(C)=N\O)C1 (some centres unmarked) [Example 2b] , the logged ED50 turned out to be 7
